# Test system: caspase-8 in MDA-MB-231 breast cancer cells
# MEASUREMENT_PROTOCOL: FLICA caspase-8 activity, flow cytometry, MDA-MB-231
# Assay type: cell-based, human
# STATED_CONDITIONS: MDA-MB-231, 20 μM, 24 h
Each entry below lists one item and its recorded percent of cells with active caspase-8 value.

| COMPOUND | READING_UNIT | percent of cells with active caspase-8 |
| --- | --- | --- |
| Cc1ccn[nH]1.Cc1ccn[nH]1.Cc1ccn[nH]1.Cc1ccn[nH]1.Cl.Cl.Cl.Cl.N=C(N)c1ccc(N=N[N]([Pt])c2ccc(C(=N)N)cc2)cc1.N=C(N)c1ccc(N=N[N]([Pt])c2ccc(C(=N)N)cc2)cc1.O.O | % | 37.9 |
| Cc1cc(C)[n+]([Pt-2]2([n+]3c(C)cc(C)n3CO)[N](c3ccc(C(=N)N)cc3)N=[N+](c3ccc(C(=N)N)cc3)[Pt-2]([n+]3c(C)cc(C)n3CO)([n+]3c(C)cc(C)n3CO)[N](c3ccc(C(=N)N)cc3)N=[N+]2c2ccc(C(=N)N)cc2)n1CO.Cl.Cl.Cl.Cl.O.O | % | 48.9 |
| Cc1c[nH][n+]([Pt-2]2([n+]3[nH]cc(C)c3C)[N](c3ccc(C(=N)N)cc3)N=[N+](c3ccc(C(=N)N)cc3)[Pt-2]([n+]3[nH]cc(C)c3C)([n+]3[nH]cc(C)c3C)[N](c3ccc(C(=N)N)cc3)N=[N+]2c2ccc(C(=N)N)cc2)c1C.Cl.Cl.Cl.Cl.O.O | % | 38.0 |
| Cc1cc(C)[n+]([Pt-2]2([n+]3[nH]c(C)cc3C)[N](c3ccc(C(=N)N)cc3)N=[N+](c3ccc(C(=N)N)cc3)[Pt-2]([n+]3[nH]c(C)cc3C)([n+]3[nH]c(C)cc3C)[N](c3ccc(C(=N)N)cc3)N=[N+]2c2ccc(C(=N)N)cc2)[nH]1.Cl.Cl.Cl.Cl.O.O | % | 45.8 |
| CCn1ccc[n+]1[Pt-2]1([n+]2cccn2CC)[N](c2ccc(C(=N)N)cc2)N=[N+](c2ccc(C(=N)N)cc2)[Pt-2]([n+]2cccn2CC)([n+]2cccn2CC)[N](c2ccc(C(=N)N)cc2)N=[N+]1c1ccc(C(=N)N)cc1.Cl.Cl.Cl.Cl.O.O | % | 21.1 |
| N.N.[Cl][Pt][Cl] [cisplatin, reference compound] | % | 9.7 |

====

IC50: recorded values
# Test system: MDA-MB-231 breast cancer cells
# MEASUREMENT_PROTOCOL: MTT cell viability assay, MDA-MB-231
# Type: cell-based, human
# STATED_CONDITIONS: MDA-MB-231, 24 h incubation, 5-50 μM; read-out: IC50 (cell viability, MTT)

| MOLECULE | COMPARATIVE_SIGN | IC50 [µM] |
| --- | --- | --- |
| Cc1c[nH][n+]([Pt-2]2([n+]3[nH]cc(C)c3C)[N](c3ccc(C(=N)N)cc3)N=[N+](c3ccc(C(=N)N)cc3)[Pt-2]([n+]3[nH]cc(C)c3C)([n+]3[nH]cc(C)c3C)[N](c3ccc(C(=N)N)cc3)N=[N+]2c2ccc(C(=N)N)cc2)c1C.Cl.Cl.Cl.Cl.O.O [PtPz3] | = | 20 |
| Cc1cc(C)[n+]([Pt-2]2([n+]3c(C)cc(C)n3CO)[N](c3ccc(C(=N)N)cc3)N=[N+](c3ccc(C(=N)N)cc3)[Pt-2]([n+]3c(C)cc(C)n3CO)([n+]3c(C)cc(C)n3CO)[N](c3ccc(C(=N)N)cc3)N=[N+]2c2ccc(C(=N)N)cc2)n1CO.Cl.Cl.Cl.Cl.O.O [PtPz1] | = | 16 |
| CCn1ccc[n+]1[Pt-2]1([n+]2cccn2CC)[N](c2ccc(C(=N)N)cc2)N=[N+](c2ccc(C(=N)N)cc2)[Pt-2]([n+]2cccn2CC)([n+]2cccn2CC)[N](c2ccc(C(=N)N)cc2)N=[N+]1c1ccc(C(=N)N)cc1.Cl.Cl.Cl.Cl.O.O [PtPz6] | > | 50 |
| Cc1ccn[nH]1.Cc1ccn[nH]1.Cc1ccn[nH]1.Cc1ccn[nH]1.Cl.Cl.Cl.Cl.N=C(N)c1ccc(N=N[N]([Pt])c2ccc(C(=N)N)cc2)cc1.N=C(N)c1ccc(N=N[N]([Pt])c2ccc(C(=N)N)cc2)cc1.O.O [PtPz5] | = | 29 |
| N.N.[Cl][Pt][Cl] [cisplatin, reference compound] | > | 50 |
| Cc1cc(C)[n+]([Pt-2]2([n+]3[nH]c(C)cc3C)[N](c3ccc(C(=N)N)cc3)N=[N+](c3ccc(C(=N)N)cc3)[Pt-2]([n+]3[nH]c(C)cc3C)([n+]3[nH]c(C)cc3C)[N](c3ccc(C(=N)N)cc3)N=[N+]2c2ccc(C(=N)N)cc2)[nH]1.Cl.Cl.Cl.Cl.O.O [PtPz2] | = | 17 |

====

# System: caspase-9 in MDA-MB-231 breast cancer cells
# MEASUREMENT_PROTOCOL: FLICA caspase-9 activity, flow cytometry, MDA-MB-231
# Assay type: cell-based, human
# STATED_CONDITIONS: MDA-MB-231, 20 μM, 24 h
percent of cells with active caspase-9 reference
VALUE_KIND: percent of cells with active caspase-9

| COMPOUND | TARGET_ENTITY | READING |
| --- | --- | --- |
| Cc1c[nH][n+]([Pt-2]2([n+]3[nH]cc(C)c3C)[N](c3ccc(C(=N)N)cc3)N=[N+](c3ccc(C(=N)N)cc3)[Pt-2]([n+]3[nH]cc(C)c3C)([n+]3[nH]cc(C)c3C)[N](c3ccc(C(=N)N)cc3)N=[N+]2c2ccc(C(=N)N)cc2)c1C.Cl.Cl.Cl.Cl.O.O [PtPz3] | caspase-9 in MDA-MB-231 breast cancer cells | 41.1% |
| N.N.[Cl][Pt][Cl] [cisplatin, reference compound] | caspase-9 in MDA-MB-231 breast cancer cells | 7.3% |
| CCn1ccc[n+]1[Pt-2]1([n+]2cccn2CC)[N](c2ccc(C(=N)N)cc2)N=[N+](c2ccc(C(=N)N)cc2)[Pt-2]([n+]2cccn2CC)([n+]2cccn2CC)[N](c2ccc(C(=N)N)cc2)N=[N+]1c1ccc(C(=N)N)cc1.Cl.Cl.Cl.Cl.O.O [PtPz6] | caspase-9 in MDA-MB-231 breast cancer cells | 24.6% |
| Cc1cc(C)[n+]([Pt-2]2([n+]3[nH]c(C)cc3C)[N](c3ccc(C(=N)N)cc3)N=[N+](c3ccc(C(=N)N)cc3)[Pt-2]([n+]3[nH]c(C)cc3C)([n+]3[nH]c(C)cc3C)[N](c3ccc(C(=N)N)cc3)N=[N+]2c2ccc(C(=N)N)cc2)[nH]1.Cl.Cl.Cl.Cl.O.O [PtPz2] | caspase-9 in MDA-MB-231 breast cancer cells | 46.5% |
| Cc1cc(C)[n+]([Pt-2]2([n+]3c(C)cc(C)n3CO)[N](c3ccc(C(=N)N)cc3)N=[N+](c3ccc(C(=N)N)cc3)[Pt-2]([n+]3c(C)cc(C)n3CO)([n+]3c(C)cc(C)n3CO)[N](c3ccc(C(=N)N)cc3)N=[N+]2c2ccc(C(=N)N)cc2)n1CO.Cl.Cl.Cl.Cl.O.O [PtPz1] | caspase-9 in MDA-MB-231 breast cancer cells | 47.9% |
| Cc1ccn[nH]1.Cc1ccn[nH]1.Cc1ccn[nH]1.Cc1ccn[nH]1.Cl.Cl.Cl.Cl.N=C(N)c1ccc(N=N[N]([Pt])c2ccc(C(=N)N)cc2)cc1.N=C(N)c1ccc(N=N[N]([Pt])c2ccc(C(=N)N)cc2)cc1.O.O [PtPz5] | caspase-9 in MDA-MB-231 breast cancer cells | 38.6% |

====

# Test system: MCF-7 breast cancer cells
# MEASUREMENT_PROTOCOL: DNA fragmentation TUNEL assay, MCF-7
# Format: cell-based, human
# STATED_CONDITIONS: MCF-7, 20 μM, 24 h; control 4.0%

| MOLECULE | percent of TUNEL positive cells / % |
| --- | --- |
| Cc1cc(C)[n+]([Pt-2]2([n+]3[nH]c(C)cc3C)[N](c3ccc(C(=N)N)cc3)N=[N+](c3ccc(C(=N)N)cc3)[Pt-2]([n+]3[nH]c(C)cc3C)([n+]3[nH]c(C)cc3C)[N](c3ccc(C(=N)N)cc3)N=[N+]2c2ccc(C(=N)N)cc2)[nH]1.Cl.Cl.Cl.Cl.O.O | 47.5 |
| N.N.[Cl][Pt][Cl] [cisplatin, reference compound] | 10.9 |
| Cc1cc(C)[n+]([Pt-2]2([n+]3c(C)cc(C)n3CO)[N](c3ccc(C(=N)N)cc3)N=[N+](c3ccc(C(=N)N)cc3)[Pt-2]([n+]3c(C)cc(C)n3CO)([n+]3c(C)cc(C)n3CO)[N](c3ccc(C(=N)N)cc3)N=[N+]2c2ccc(C(=N)N)cc2)n1CO.Cl.Cl.Cl.Cl.O.O | 55.7 |
| Cc1c[nH][n+]([Pt-2]2([n+]3[nH]cc(C)c3C)[N](c3ccc(C(=N)N)cc3)N=[N+](c3ccc(C(=N)N)cc3)[Pt-2]([n+]3[nH]cc(C)c3C)([n+]3[nH]cc(C)c3C)[N](c3ccc(C(=N)N)cc3)N=[N+]2c2ccc(C(=N)N)cc2)c1C.Cl.Cl.Cl.Cl.O.O | 46.5 |
| Cc1ccn[nH]1.Cc1ccn[nH]1.Cc1ccn[nH]1.Cc1ccn[nH]1.Cl.Cl.Cl.Cl.N=C(N)c1ccc(N=N[N]([Pt])c2ccc(C(=N)N)cc2)cc1.N=C(N)c1ccc(N=N[N]([Pt])c2ccc(C(=N)N)cc2)cc1.O.O | 32.1 |
| CCn1ccc[n+]1[Pt-2]1([n+]2cccn2CC)[N](c2ccc(C(=N)N)cc2)N=[N+](c2ccc(C(=N)N)cc2)[Pt-2]([n+]2cccn2CC)([n+]2cccn2CC)[N](c2ccc(C(=N)N)cc2)N=[N+]1c1ccc(C(=N)N)cc1.Cl.Cl.Cl.Cl.O.O | 14.2 |
